# assayedSystem: seven human 14-3-3 isoforms
# assayDetails: Affinities averaged or compared across the 14-3-3 family (ΔΔGav, KD ratios, affinity maps)
# Type: binding
# conditions: Figure 4 panel b; average over the isoforms
Starred links: 1 amine or outer side, 2 acyl side, 3 side chain; linkers in the order of their positions; H or OH if unused. Non-standard residues stand in square brackets, D forms with d. Residues, ends and D or L forms follow the SMILES beside them. *: point of attachment. X1 = O=C(CCCC[C@@H]1SC[C@@H]2NC(=O)N[C@@H]21)NCCCOCCOCCOCCCN*; pT = C[C@@H](OP(=O)(O)O)[C@H](N)C(=O)O; Suc = O=C(CCC(=O)[*:2])[*:1]
parameterMeasured: KD ratios, compared to LRRK2 pS910/pS935, average

compound	reportedValue
CC(C)[C@H](NC(=O)[C@H](CCC(=O)O)NC(=O)[C@@H](NC(=O)[C@H](CCC(=O)O)NC(=O)[C@H](CCCNC(=N)N)NC(=O)[C@H](CCCNC(=N)N)NC(=O)[C@H](CCCNC(=N)N)NC(=O)[C@@H]1CCCN1C(=O)[C@H](CCCCN)NC(=O)[C@H](CO)NC(=O)CCC(=O)NCCCOCCOCCOCCCNC(=O)CCCC[C@@H]1SC[C@@H]2NC(=O)N[C@@H]21)[C@@H](C)OP(=O)(O)O)C(=O)O [pHPV35E6T-6R] ({X1-Suc}-SKPRRRE[pT]EV-OH)	20000

====

# assayedSystem: seven human 14-3-3 isoforms
# assayDetails: Affinities averaged or compared across the 14-3-3 family (ΔΔGav, KD ratios, affinity maps)
# Assay type: binding
# conditions: Figure 4 panel b; 14-3-3β
Starred links: 1 amine or outer side, 2 acyl side, 3 side chain; linkers in the order of their positions; H or OH if unused. Non-standard residues stand in square brackets, D forms with d. Residues, ends and D or L forms follow the SMILES beside them. *: point of attachment. X1 = O=C(CCCC[C@@H]1SC[C@@H]2NC(=O)N[C@@H]21)NCCCOCCOCCOCCCN*; pT = C[C@@H](OP(=O)(O)O)[C@H](N)C(=O)O; Suc = O=C(CCC(=O)[*:2])[*:1]
parameterMeasured: KD ratios, compared to LRRK2 pS910/pS935, 14-3-3β

molecule	assayedSystem	reportedValue
CC(C)C[C@H](NC(=O)[C@H](CCC(N)=O)NC(=O)[C@@H](NC(=O)[C@H](CCC(=O)O)NC(=O)[C@H](CCCNC(=N)N)NC(=O)[C@H](CCCNC(=N)N)NC(=O)[C@@H](NC(=O)[C@H](CCCNC(=N)N)NC(=O)[C@H](CO)NC(=O)[C@H](CO)NC(=O)CCC(=O)NCCCOCCOCCOCCCNC(=O)CCCC[C@@H]1SC[C@@H]2NC(=O)N[C@@H]21)[C@@H](C)O)[C@@H](C)OP(=O)(O)O)C(=O)O	seven human 14-3-3 isoforms	7536
CC(C)C[C@H](NC(=O)[C@H](C)NC(=O)[C@@H](NC(=O)[C@H](CCC(=O)O)NC(=O)[C@H](CCCNC(=N)N)NC(=O)[C@H](CCCNC(=N)N)NC(=O)[C@H](CCCNC(=N)N)NC(=O)[C@H](CO)NC(=O)[C@H](CCCNC(=N)N)NC(=O)[C@H](CO)NC(=O)CCC(=O)NCCCOCCOCCOCCCNC(=O)CCCC[C@@H]1SC[C@@H]2NC(=O)N[C@@H]21)[C@@H](C)OP(=O)(O)O)C(=O)O [pHPV33E6] ({X1-Suc}-SRSRRRE[pT]AL-OH)	seven human 14-3-3 isoforms	191.94
CC(C)[C@H](NC(=O)[C@H](C)NC(=O)[C@@H](NC(=O)[C@H](CCC(=O)O)NC(=O)[C@H](CCCNC(=N)N)NC(=O)[C@H](CCCNC(=N)N)NC(=O)[C@@H](NC(=O)[C@@H]1CCCN1C(=O)[C@H](CCCCN)NC(=O)[C@H](CO)NC(=O)CCC(=O)NCCCOCCOCCOCCCNC(=O)CCCC[C@@H]1SC[C@@H]2NC(=O)N[C@@H]21)[C@@H](C)O)[C@@H](C)OP(=O)(O)O)C(=O)O [pHPV35E6E-1A] ({X1-Suc}-SKPTRRE[pT]AV-OH)	seven human 14-3-3 isoforms	957.35
CC(C)[C@H](NC(=O)[C@H](CCC(=O)O)NC(=O)[C@@H](NC(=O)[C@H](CCC(=O)O)NC(=O)[C@H](CCCNC(=N)N)NC(=O)[C@H](CCCNC(=N)N)NC(=O)[C@H](CCCNC(=N)N)NC(=O)[C@@H]1CCCN1C(=O)[C@H](CCCCN)NC(=O)[C@H](CO)NC(=O)CCC(=O)NCCCOCCOCCOCCCNC(=O)CCCC[C@@H]1SC[C@@H]2NC(=O)N[C@@H]21)[C@@H](C)OP(=O)(O)O)C(=O)O [pHPV35E6T-6R] ({X1-Suc}-SKPRRRE[pT]EV-OH)	seven human 14-3-3 isoforms	8483
CC(C)C[C@H](NC(=O)[C@H](CCCNC(=N)N)NC(=O)CCC(=O)NCCCOCCOCCOCCCNC(=O)CCCC[C@@H]1SC[C@@H]2NC(=O)N[C@@H]21)C(=O)N[C@@H](CCC(N)=O)C(=O)N[C@@H](CCCNC(=N)N)C(=O)N[C@@H](CCCNC(=N)N)C(=O)N[C@@H](CCCNC(=N)N)C(=O)N[C@@H](CCC(=O)O)C(=O)N[C@H](C(=O)N[C@@H](CCC(N)=O)C(=O)N[C@H](C(=O)O)C(C)C)[C@@H](C)OP(=O)(O)O	seven human 14-3-3 isoforms	2000.00
